Reference source: ChEMBL document CHEMBL1145439

- Tested on: Kidney
- test-protocol: Biodistribution in kidney of mouse EMT6 tumor bearing BALB/c mouse at 10 to 20 uCi after 30 mins
- Type: ADME, organism-based
- study-conditions: in vivo, 0.5 h
observation-type: Drug uptake (% ID/g)

The examples below pair each entry with its known result.
In [3]: df
Out[3]:
                                   compound  observation_type  result_value
0  COc1cc2c(cc1OC)CN(CCCCNC(=O)c1cc(I)cc(OC)c1OCC[18F])CC2       Drug uptake          7.73
1  COc1cc2c(cc1OC)CN(CCCCNC(=O)c1cc(I)ccc1OCC[18F])CC2       Drug uptake         17.43

[1] COc1cc2c(cc1OC)CN(CCCCNC(=O)c1cc(C)ccc1OCC[18F])CC2
[2] COc1cc2c(cc1OC)CN(CCCCNC(=O)c1cc(Br)ccc1OCC[18F])CC2
input: Please let me know which one, 1 or 2 , has a lower measured Drug uptake value. Your choice should be expressed through its label.
output: 1
(1: 6.86 % ID/g, 2: 17.55 % ID/g)
